Origin of measurements: patent US20170015742A1

# experimental system: T1, Human VEGF-A 165 (human, UniProt P15692 207-395)
# T1 construct: Recombinant human VEGF165; also called hVEGF165; huVEGF-A165
# T1 sequence (P15692 other isoform, or with tags, fused parts or gaps limits assumed): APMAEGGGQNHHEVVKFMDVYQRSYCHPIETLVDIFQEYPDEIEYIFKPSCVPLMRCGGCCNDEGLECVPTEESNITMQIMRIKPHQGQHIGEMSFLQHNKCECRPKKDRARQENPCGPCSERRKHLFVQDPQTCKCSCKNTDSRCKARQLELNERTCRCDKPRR
# assay procedure: SPR (Biacore), antibody captured via anti-human Fc, antigen in solution
So I've got a bunch of binders here, and I need their pKd values.
Value format note: pKd is -log10 of concentration (mol/L); just state the number.

Tell me the measured pKd of hBEW-1E3.4 (antibody, V domains shown, Humanized IgG) VH: EIQLVQSGSELKKPGASVKVSCKASGYPFTNSGMYWVKQAPGQGLEYMGWINTEAGKPTYADDFKGRFVFSLDTSVSTAYLQISSLKAEDTAVYFCARWGYISDNSYGWFDYWGQGTLVTVSS VL: ATQLTQSPSSLSASVGDRVTISCRASEGVYSYMHWYQQKPGKQPKLLIYKASNLASGVPSRFSGSGSGTDFTLTISSLQPEDFATYFCHQNWNDPLTFGQGTKLEIK , please. 11.01

Report pKd for hBEW-1E3.2 (antibody, V domains shown, Humanized IgG) VH: EIQLVQSGAEVKKPGASVKVSCKASGYPFTNSGMYWVKQAPGQGLEYMGWINTEAGKPTYADDFKGRFTFTLDTSTSTAYLEIRSLRSDDTAVYFCARWGYISDNSYGWFDYWGQGTLVTVSS VL: ETVLTQSPATLSLSPGERATLSCRASEGVYSYMHWYQQKPGQQPRLLIYKASNLASGVPARFSGSGSGTDFTLTISSLEPEDFAVYFCHQNWNDPLTFGQGTKLEIK please. 11.04

Look up pKd: hBEW-1E3.1 (antibody, V domains shown, Humanized IgG) VH: EIQLVQSGSELKKPGASVKVSCKASGYPFTNSGMYWVKQAPGQGLEYMGWINTEAGKPTYADDFKGRFVFSLDTSVSTAYLQISSLKAEDTAVYFCARWGYISDNSYGWFDYWGQGTLVTVSS VL: ETVLTQSPATLSLSPGERATLSCRASEGVYSYMHWYQQKPGQQPRLLIYKASNLASGVPARFSGSGSGTDFTLTISSLEPEDFAVYFCHQNWNDPLTFGQGTKLEIK 11.11

Fill in the blank: the reported pKd of hBEW-1E3.5 (antibody, V domains shown, Humanized IgG) VH: EIQLVQSGAEVKKPGASVKVSCKASGYPFTNSGMYWVKQAPGQGLEYMGWINTEAGKPTYADDFKGRFTFTLDTSTSTAYLEIRSLRSDDTAVYFCARWGYISDNSYGWFDYWGQGTLVTVSS VL: ATQLTQSPSSLSASVGDRVTISCRASEGVYSYMHWYQQKPGKQPKLLIYKASNLASGVPSRFSGSGSGTDFTLTISSLQPEDFATYFCHQNWNDPLTFGQGTKLEIK is ____. 11.00
